biological target: Histone deacetylase 1 (Homo sapiens, UniProt Q13547); assay: Inhibition of recombinant human full length HDAC1 expressed in baculovirus infected Sf9 insect cells using p53 (379 to 382 residues) derived RHKKAc as substrate preincubated for 5 to 10 mins followed by substrate addition measured after 2 hrs by fluorescence assay
Sequence (Q13547 whole entry, the tested form may be a part): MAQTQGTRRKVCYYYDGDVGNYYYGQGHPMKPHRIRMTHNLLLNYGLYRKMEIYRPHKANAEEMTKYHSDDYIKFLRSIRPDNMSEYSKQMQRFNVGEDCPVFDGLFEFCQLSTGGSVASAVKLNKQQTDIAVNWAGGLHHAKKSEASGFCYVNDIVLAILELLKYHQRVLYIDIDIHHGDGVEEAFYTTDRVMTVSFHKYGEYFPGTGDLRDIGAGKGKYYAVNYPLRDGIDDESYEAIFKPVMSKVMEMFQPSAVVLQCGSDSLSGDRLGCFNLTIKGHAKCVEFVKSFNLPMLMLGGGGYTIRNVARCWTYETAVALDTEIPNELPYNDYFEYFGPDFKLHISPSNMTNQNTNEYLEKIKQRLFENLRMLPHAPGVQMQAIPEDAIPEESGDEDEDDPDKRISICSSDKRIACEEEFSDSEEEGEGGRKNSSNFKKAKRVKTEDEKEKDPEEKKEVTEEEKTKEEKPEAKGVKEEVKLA
assay readout: IC50 (µM)

{"structure smiles": "O=C(NO)c1ccc(CN(CCCCO)C(=O)Nc2ccccc2)cc1", "unit of measurement": "µM", "relation symbol": "=", "number": 2.91}
{"structure smiles": "CCCCN(Cc1ccc(N(O)C=O)cc1)C(=O)Nc1ccccc1", "unit of measurement": "µM", "relation symbol": ">", "number": 30}
{"structure smiles": "CCCCN(Cc1ccc(C(=O)NO)cc1)C(=O)NCCN1CCCC1", "unit of measurement": "µM", "relation symbol": "=", "number": 14.4}
{"structure smiles": "CCCCN(Cc1ccc(C(=O)NO)cc1)C(=O)Nc1cc(C)ccn1", "unit of measurement": "µM", "relation symbol": "=", "number": 7.54}
{"structure smiles": "CCCCN(C(=O)Nc1cccc(N(C)C)c1)c1ccc(C(=O)NO)cc1", "unit of measurement": "µM", "relation symbol": ">", "number": 30}
{"structure smiles": "CC(C)CN(Cc1ccc(C(=O)NO)cc1)C(=O)Nc1ccccc1", "unit of measurement": "µM", "relation symbol": "=", "number": 6.13}

###

biological target: Protein deacetylase HDAC6 (Homo sapiens, UniProt Q9UBN7); assay: Inhibition of recombinant human full length HDAC6 expressed in baculovirus infected Sf9 insect cells using p53 (379 to 382 residues) derived RHKKAc as substrate preincubated for 5 to 10 mins followed by substrate addition measured after 2 hrs by fluorescence assay; details: read-out: IC50
Sequence (Q9UBN7 whole entry, the tested form may be a part): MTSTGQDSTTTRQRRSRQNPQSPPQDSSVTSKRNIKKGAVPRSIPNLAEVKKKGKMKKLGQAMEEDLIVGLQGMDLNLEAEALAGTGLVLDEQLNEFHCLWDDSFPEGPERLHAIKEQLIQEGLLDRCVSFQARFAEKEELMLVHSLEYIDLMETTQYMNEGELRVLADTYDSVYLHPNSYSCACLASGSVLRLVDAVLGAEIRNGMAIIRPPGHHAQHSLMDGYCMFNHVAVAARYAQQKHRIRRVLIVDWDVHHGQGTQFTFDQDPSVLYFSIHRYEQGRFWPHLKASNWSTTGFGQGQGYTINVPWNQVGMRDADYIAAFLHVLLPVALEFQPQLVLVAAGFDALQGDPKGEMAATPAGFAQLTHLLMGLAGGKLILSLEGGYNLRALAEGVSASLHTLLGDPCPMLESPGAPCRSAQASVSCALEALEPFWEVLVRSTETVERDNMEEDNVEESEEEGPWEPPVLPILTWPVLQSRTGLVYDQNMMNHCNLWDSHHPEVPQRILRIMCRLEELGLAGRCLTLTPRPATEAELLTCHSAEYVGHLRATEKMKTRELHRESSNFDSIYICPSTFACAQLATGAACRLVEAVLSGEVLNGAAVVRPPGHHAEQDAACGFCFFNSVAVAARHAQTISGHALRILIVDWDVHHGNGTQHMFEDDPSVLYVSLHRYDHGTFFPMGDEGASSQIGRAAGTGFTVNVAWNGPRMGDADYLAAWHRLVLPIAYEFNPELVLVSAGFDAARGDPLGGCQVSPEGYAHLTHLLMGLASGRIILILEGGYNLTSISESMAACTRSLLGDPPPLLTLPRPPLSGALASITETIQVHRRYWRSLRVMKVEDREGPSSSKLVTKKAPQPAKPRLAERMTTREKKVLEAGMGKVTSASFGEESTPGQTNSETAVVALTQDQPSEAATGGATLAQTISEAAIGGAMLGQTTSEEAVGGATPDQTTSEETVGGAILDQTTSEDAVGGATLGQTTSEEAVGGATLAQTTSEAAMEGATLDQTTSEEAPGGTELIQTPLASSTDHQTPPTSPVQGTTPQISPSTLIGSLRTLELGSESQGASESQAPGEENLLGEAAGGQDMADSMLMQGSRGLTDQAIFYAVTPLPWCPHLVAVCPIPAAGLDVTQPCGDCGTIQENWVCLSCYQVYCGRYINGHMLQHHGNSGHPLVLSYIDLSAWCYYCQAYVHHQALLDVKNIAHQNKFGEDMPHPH
Field 'label' (enum: Y / N). Set to Y when IC50 is strictly under 6 nM; else N.

{"structure smiles": "CCCCN(Cc1ccc(C(=O)NO)cc1)C(=O)Nc1cc(C)ccn1", "group label": "N"}
{"structure smiles": "O=C(NO)c1ccc(CN(CCCCO)C(=O)Nc2ccccc2)cc1", "group label": "Y"}
{"structure smiles": "CCCCN(Cc1ccc(N(O)C=O)cc1)C(=O)Nc1ccccc1", "group label": "N"}
{"structure smiles": "CCCCN(Cc1ccc(C(=O)NO)cc1)C(=O)Nc1ccc2cn[nH]c2c1", "group label": "Y"}
{"structure smiles": "CCCCN(C(=O)Nc1cccc(N(C)C)c1)c1ccc(C(=O)NO)cc1", "group label": "N"}
{"structure smiles": "CCCCN(Cc1ccc(C(=O)NO)cc1)C(=O)Nc1cccc(N(C)C)c1", "group label": "Y"}
{"structure smiles": "CCCCN(Cc1ccc(C(=O)NO)cc1)C(=O)NCCN1CCCC1", "group label": "N"}
{"structure smiles": "CC(C)CN(Cc1ccc(C(=O)NO)cc1)C(=O)Nc1ccccc1", "group label": "N"}
